Would you kindly list koff for each of these binders?
Biological target: T1, human tenascin-C rCd4-His-FBG (rat; human, UniProt P05540 207-392, limits assumed)
T1 construct: domain: domains 3 and 4; C-terminal FBG fusion; biotinylated in the ELISA and HTRF screens; also called Hu TNC; human TNC rCd4-His-FBG; not shown: 6His tag
T1 sequence (chain (part 1 of 2)): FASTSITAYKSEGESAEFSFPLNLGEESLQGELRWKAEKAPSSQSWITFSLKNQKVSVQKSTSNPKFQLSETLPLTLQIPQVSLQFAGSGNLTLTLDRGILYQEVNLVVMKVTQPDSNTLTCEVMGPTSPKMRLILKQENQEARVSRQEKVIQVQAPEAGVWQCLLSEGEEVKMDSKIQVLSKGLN
T1 sequence (chain (part 2 of 2)): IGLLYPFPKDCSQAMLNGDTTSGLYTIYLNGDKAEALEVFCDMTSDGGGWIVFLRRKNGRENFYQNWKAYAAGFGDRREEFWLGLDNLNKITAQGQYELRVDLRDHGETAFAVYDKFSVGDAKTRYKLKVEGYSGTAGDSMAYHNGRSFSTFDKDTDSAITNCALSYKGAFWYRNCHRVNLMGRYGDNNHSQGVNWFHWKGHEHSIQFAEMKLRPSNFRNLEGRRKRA
Experiment: SPR off-rate screen, captured IgG4 supernatant, 25 C
Method: The 31 scFv of interest were sub-cloned into a human IgG4 expression vector for generation of antibodies as human IgG4 with a hinge-stabilising mutation (S241P; Angal et al, 1993). […] Off rates were determined by reference cell subtraction and fitting the sensogram experimental data assuming a 1:1 interaction using BIAevaluation software (GE, BR-1005-97).
Answers are plain numbers, in s⁻¹.

Query string: What does the record list as koff for 165_13_B6 human IgG4 (antibody, V domains shown, human IgG4 with hinge S241P) VH: QVQLVESGGGLVQPGRSLRLSCAASGFTFDDYAMHWVRQAPGKGLEWVSGISGSGGSTYYADSVKGRFTISRDNAKNSLYLQMNSLRAEDTALYYCAKGQKGEGDTFDIWGQGTMVTVSS VL: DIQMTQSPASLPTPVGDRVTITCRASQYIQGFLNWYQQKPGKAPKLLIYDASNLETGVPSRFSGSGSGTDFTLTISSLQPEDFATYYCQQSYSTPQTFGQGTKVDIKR ?
Result string: 5.6e-06

Query string: I am curious: what koff value has been reported for 162_02_F4 human IgG4 (antibody, V domains shown, human IgG4 with hinge S241P; also called Antibody 162 02 F4 (derived from 2A5)) VH: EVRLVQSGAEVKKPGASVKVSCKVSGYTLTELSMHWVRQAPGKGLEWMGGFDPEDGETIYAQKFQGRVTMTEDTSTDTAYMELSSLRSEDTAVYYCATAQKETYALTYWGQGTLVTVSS VL: DIQMTQSPASLPTSVGDRVTITCRASQYIQGFLNWYQQKPGKAPRLLIYAASTLQDGVPSRFSGSGYGTDFTLTISSLQPEDFATYYCMHHYRSPWTFGQGTKVEIKR ?
Result string: 5.9e-07

Okay, next one:
Query string: Consider the binder shown here: 160_01_D6 human IgG4 (antibody, V domains shown, human IgG4 with hinge S241P; also called Antibody 160 01 D6 (derived from 2A5)) VH: EVRLVQSGAEVKKPGASVKVSCKVSGYTLTELSMHWVRQAPGKGLEWMGGFDPEDGETIYAQKFQGRVTMTEDTSTDTAYMELSSLRSEDTAVYYCATAQADPHLFTYWGQGTLVTVSS VL: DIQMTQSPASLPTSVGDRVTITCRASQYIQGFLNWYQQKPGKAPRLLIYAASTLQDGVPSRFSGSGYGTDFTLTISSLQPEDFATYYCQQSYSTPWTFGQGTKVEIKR What is its recorded koff?
Result string: 1.05e-05

Origin of measurements: patent US20170306005A1
